experiment: Caco-2 cell monolayer membrane transport assay; conditions: human, Caco-2, Recovery rate in mass, Sample-01, Caco-2; A-B; Sample-01
experimentalEndpoint: recovery (%)
Numbers only, in %.

{"columns": ["compound", "readoutUnits", "measuredValue"],
 "data": [
  ["CCSC(=O)O[C@H]1C(=O)[C@]2(C)[C@@H](OC)C[C@H]3OC[C@@]3(OC(C)=O)[C@H]2[C@H](OC(=O)c2ccccc2)[C@]2(O)C[C@H](OC(=O)[C@H](O)[C@@H](NC(=O)OC(C)(C)C)c3ccccc3)C(C)=C1C2(C)C [PCMI-30]", "%", 70.4]
]}

Could you now look at the following compound, please?
Q: Reported recovery, compound CO[C@H]1C[C@H]2OC[C@@]2(OC(C)=O)[C@H]2[C@H](OC(=O)c3ccccc3)[C@]3(O)C[C@H](OC(=O)[C@H](O)[C@@H](NC(=O)c4ccccc4)c4ccccc4)C(C)=C([C@@H](OC(=O)N(C)C)C(=O)[C@]12C)C3(C)C [PCMI-23] : ____
A: 100

###

tested on: HT29 colon cancer; assay: MTT assay, proliferation inhibition; format: cell-based; settings: Homo sapiens, HT-29, read-out: Proliferation inhibition rate
For each record, write down the corresponding inhibition at 1 µM.
Numeric answer plus unit only.

{"columns": ["compound", "experimentalEndpoint", "measuredValue"],
 "data": [
  ["CO[C@H]1C[C@H]2OC[C@@]2(OC(C)=O)[C@H]2[C@H](OC(=O)c3ccccc3)[C@]3(O)C[C@H](OC(=O)[C@H](O)[C@@H](NC(=O)c4ccccc4)c4ccccc4)C(C)=C([C@@H](OC(=O)N(C)C)C(=O)[C@]12C)C3(C)C [PCMI-23]", "inhibition at 1 µM", "87.9%"]
]}

Could you now look at the following compound, please?
Q: Reported inhibition at 1 µM, compound CO[C@H]1C(=O)[C@]2(C)CC[C@H]3OC[C@@]3(OC(C)=O)[C@H]2[C@H](OC(=O)c2ccccc2)[C@]2(O)C[C@H](OC(=O)[C@H](O)[C@H](CC(C)C)NC(=O)OC(C)(C)C)C(C)=C1C2(C)C [PCMI-42] : ____
A: 88.2%

###

system: HT29 colon cancer; experiment: MTT assay, proliferation inhibition; format: cell-based; settings: Homo sapiens, HT-29, read-out: Proliferation inhibition rate
For each record, write down the corresponding inhibition at 1 µM.
Answers are plain numbers, in %.

{"columns": ["smilesString", "measuredValue"],
 "data": [
  ["COC(=O)O[C@H]1C[C@H]2OC[C@@]2(OC(C)=O)[C@H]2[C@H](OC(=O)c3ccccc3)[C@]3(O)C[C@H](OC(=O)[C@H](O)[C@@H](NC(=O)OC(C)(C)C)c4ccccn4)C(C)=C([C@@H](OC)C(=O)[C@]12C)C3(C)C", 89.8],
  ["CO[C@H]1C(=O)[C@]2(C)[C@@H](OC(=O)N(C)C)C[C@H]3OC[C@@]3(OC(C)=O)[C@H]2[C@H](OC(=O)c2ccccc2)[C@]2(O)C[C@H](OC(=O)[C@H](O)[C@@H](NC(=O)OC(C)(C)C)c3ccccc3)C(C)=C1C2(C)C", 89.4],
  ["COC(=O)O[C@H]1C[C@H]2OC[C@@]2(OC(C)=O)[C@H]2[C@H](OC(=O)c3ccccc3)[C@]3(O)C[C@H](OC(=O)[C@H](O)[C@@H](NC(=O)c4ccccc4)c4ccccc4)C(C)=C([C@@H](OC)C(=O)[C@]12C)C3(C)C", 89.7]
]}

Could you now look at the following molecule, please?
Q: Value wanted: inhibition at 1 µM (HT29 colon cancer) of entry COC(=O)O[C@H]1C(=O)[C@]2(C)[C@@H](OC)C[C@H]3OC[C@@]3(OC(C)=O)[C@H]2[C@H](OC(=O)c2ccccc2)[C@]2(O)C[C@H](OC(=O)[C@H](O)[C@@H](NC(=O)N(C)C)c3ccccc3)C(C)=C1C2(C)C
A: 81.7
